# testedSystem: EPHB2 (UniProt P29323)
# Sequence (P29323 whole entry, looked up): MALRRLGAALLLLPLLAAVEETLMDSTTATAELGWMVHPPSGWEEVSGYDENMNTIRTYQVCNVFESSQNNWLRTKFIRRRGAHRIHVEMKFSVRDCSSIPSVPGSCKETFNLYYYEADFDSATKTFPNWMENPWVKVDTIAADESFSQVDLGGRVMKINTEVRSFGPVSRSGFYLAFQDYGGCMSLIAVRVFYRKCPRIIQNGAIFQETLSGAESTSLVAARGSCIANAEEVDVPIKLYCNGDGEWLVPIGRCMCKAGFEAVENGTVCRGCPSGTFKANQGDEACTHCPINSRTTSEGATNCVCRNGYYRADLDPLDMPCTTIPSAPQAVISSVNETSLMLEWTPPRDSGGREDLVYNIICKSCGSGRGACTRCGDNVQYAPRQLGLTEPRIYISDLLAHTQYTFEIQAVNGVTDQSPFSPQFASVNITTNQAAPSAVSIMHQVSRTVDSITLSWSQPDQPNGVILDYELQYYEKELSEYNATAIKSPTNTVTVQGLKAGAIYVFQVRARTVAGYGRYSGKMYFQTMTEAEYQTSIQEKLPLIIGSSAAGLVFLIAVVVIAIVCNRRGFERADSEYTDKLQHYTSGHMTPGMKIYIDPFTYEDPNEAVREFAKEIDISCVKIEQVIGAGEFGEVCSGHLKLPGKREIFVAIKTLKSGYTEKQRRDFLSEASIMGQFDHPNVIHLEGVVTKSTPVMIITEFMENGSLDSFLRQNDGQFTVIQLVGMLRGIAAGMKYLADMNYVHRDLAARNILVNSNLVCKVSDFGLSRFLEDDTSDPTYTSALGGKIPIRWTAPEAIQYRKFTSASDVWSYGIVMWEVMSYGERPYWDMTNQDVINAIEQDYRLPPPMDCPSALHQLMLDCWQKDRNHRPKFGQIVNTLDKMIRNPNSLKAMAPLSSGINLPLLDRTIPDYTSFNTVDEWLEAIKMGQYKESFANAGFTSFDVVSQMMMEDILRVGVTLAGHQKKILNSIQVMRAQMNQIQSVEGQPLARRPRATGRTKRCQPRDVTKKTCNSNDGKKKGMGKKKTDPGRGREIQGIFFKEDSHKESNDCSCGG
# assayProtocol: phosphorylation enrichment, bacterial display (enrichment ratio); higher = better substrate or ligand; peptides without Tyr show the background;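 further: 11-residue human phosphosite peptides and single-mutation variants displayed on the E. coli surface, counted by deep sequencing, each peptide's frequency after selection divided by its frequency in the unselected input library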;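 further: frequency after pTyr selection over input frequency; kinase dosed for 20-30% of maximal phosphorylation in three min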
parameter: phosphorylation enrichment
A bare number is all that is needed in reply.

Example entries begin here.
QYQEKYKQMEQ [HCN4_Y531_V534M] : 0.507
HEPKGYNANFC [TGFB2_Y341] : 0.719
ADEEEYEIIAA [FEStide_E_2014] : 0.683
TDTQLYGRFGS [ITGA2B_Y384_G380D] : 0.583
CNLDTYQKRLR [PLA2G2D_Y126_R121C] : 0.582

Param item = KKGIVYVFNGR [ITGAV_Y404_I405V] ; retrieve measured phosphorylation enrichment.
0.449

Param item = QNTGVYFDLFG [PTPN11_Y62_D61V_YF] ; retrieve measured phosphorylation enrichment.
1.33

Param item = SDGHEYIFVDP [PDGFRB_Y579_YF] ; retrieve measured phosphorylation enrichment.
0.486

Param item = CSTIHYNFMCN [TP53_Y234_T230S_YF] ; retrieve measured phosphorylation enrichment.
0.54
